Measured Percentage of hemolysis at 4 μg/mL of individual entries
Test system: human red blood cells (RBCs)
measurement description: Hemolysis assay
Type: cell-based
measurement conditions: red cells of human, 1 h, 4
Where a SMILES comes first, the peptide text is derived from it.

The cases that follow already have their Percentage of hemolysis at 4 μg/mL on record.
compound="CC[C@H](C)[C@H](NC(=O)[C@H](C)NC(=O)[C@H](CCCCN)NC(=O)[C@@H](NC(=O)[C@@H](NC(=O)[C@H](CC(=O)O)NC(=O)[C@H](Cc1ccccc1)NC(=O)[C@H](CC(C)C)NC(=O)CN)[C@@H](C)CC)[C@@H](C)CC)C(=O)N[C@@H](C)C(=O)N[C@@H](CCC(=O)O)C(=O)N[C@@H](CO)C(=O)N[C@@H](Cc1ccccc1)C(N)=O [Peptide K8A] (H-GLFDIIKAIAESF-NH2)" data_value=0.0%
compound="CC[C@H](C)[C@H](NC(=O)[C@H](CCCCN)NC(=O)[C@H](CCCCN)NC(=O)[C@@H](NC(=O)[C@@H](NC(=O)[C@H](CC(=O)O)NC(=O)[C@H](Cc1ccccc1)NC(=O)[C@H](CC(C)C)NC(=O)[C@H](C)N)[C@@H](C)CC)[C@@H](C)CC)C(=O)N[C@@H](C)C(=O)N[C@@H](CCC(=O)O)C(=O)N[C@@H](CO)C(=O)N[C@@H](Cc1ccccc1)C(N)=O [Peptide G1A] (H-ALFDIIKKIAESF-NH2)" data_value=0.0%
compound="CC[C@H](C)[C@H](NC(=O)[C@H](C)NC(=O)[C@H](CC(=O)O)NC(=O)[C@H](Cc1ccccc1)NC(=O)[C@H](CC(C)C)NC(=O)CN)C(=O)N[C@@H](CCCCN)C(=O)N[C@@H](CCCCN)C(=O)N[C@H](C(=O)N[C@@H](C)C(=O)N[C@@H](CCC(=O)O)C(=O)N[C@@H](CO)C(=O)N[C@@H](Cc1ccccc1)C(N)=O)[C@@H](C)CC [Peptide I5A] (H-GLFDAIKKIAESF-NH2)" data_value=0.2%
compound="CC[C@H](C)[C@H](NC(=O)[C@H](CCCCN)NC(=O)[C@H](CCCCN)NC(=O)[C@@H](NC(=O)[C@@H](NC(=O)[C@H](CC(=O)O)NC(=O)[C@H](C)NC(=O)[C@H](CC(C)C)NC(=O)CN)[C@@H](C)CC)[C@@H](C)CC)C(=O)N[C@@H](C)C(=O)N[C@@H](CCC(=O)O)C(=O)N[C@@H](CO)C(=O)N[C@@H](Cc1ccccc1)C(N)=O [Peptide F3A] (H-GLADIIKKIAESF-NH2)" data_value=0.0%

For the next question, use this compound.
[ask] Hello, please tell me recorded Percentage of hemolysis at 4 μg/mL for this one: CC[C@H](C)[C@H](NC(=O)[C@H](CCCCN)NC(=O)[C@H](CCCCN)NC(=O)[C@@H](NC(=O)[C@@H](NC(=O)[C@H](CC(=O)O)NC(=O)[C@H](Cc1ccccc1)NC(=O)[C@H](CC(C)C)NC(=O)CN)[C@@H](C)CC)[C@@H](C)CC)C(=O)N[C@@H](C)C(=O)N[C@@H](CCC(=O)O)C(=O)N[C@@H](CO)C(=O)N[C@@H](Cc1ccccc1)C(N)=O [aurein 1.2] (H-GLFDIIKKIAESF-NH2)
[reply] 0.0%
